- system-tested: UniProt Q9N1N9
- protocol-summary: In vitro inhibitory concentration against Butyrylcholinesterase of horse serum; value ranges from 6.8-31.2
attribute-measured: IC50 (µM)
API: value field is a number in µM; no unit string.

Return reported IC50; argument: C#CCN[C@@H]1CCc2ccc(OC(=O)N(C)CCC)cc21
14.9

###

- system-tested: Butyrylcholinesterase (Equus caballus, UniProt Q9N1N9)
- Sequence (Q9N1N9 whole entry): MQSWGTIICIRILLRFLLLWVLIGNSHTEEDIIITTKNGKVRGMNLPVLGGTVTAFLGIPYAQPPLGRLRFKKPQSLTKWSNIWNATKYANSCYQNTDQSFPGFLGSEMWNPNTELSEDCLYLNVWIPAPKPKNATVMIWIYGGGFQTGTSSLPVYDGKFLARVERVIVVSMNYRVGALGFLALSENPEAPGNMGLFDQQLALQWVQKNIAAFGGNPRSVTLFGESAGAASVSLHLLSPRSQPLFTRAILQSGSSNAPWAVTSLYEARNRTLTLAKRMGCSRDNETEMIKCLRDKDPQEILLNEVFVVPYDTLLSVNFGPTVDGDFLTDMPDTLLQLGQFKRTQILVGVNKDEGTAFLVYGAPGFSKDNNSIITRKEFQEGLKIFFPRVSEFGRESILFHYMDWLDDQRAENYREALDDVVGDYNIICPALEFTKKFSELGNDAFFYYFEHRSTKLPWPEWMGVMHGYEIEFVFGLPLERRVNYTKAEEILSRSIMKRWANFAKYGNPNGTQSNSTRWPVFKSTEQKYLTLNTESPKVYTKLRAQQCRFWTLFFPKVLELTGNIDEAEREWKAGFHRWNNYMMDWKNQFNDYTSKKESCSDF
attribute-measured: pIC50
// pIC50 here means minus log10 of the molar concentration (mol/L)

API: value(readout= pIC50, system= Butyrylcholinesterase (Equus caballus, UniProt Q9N1N9), query= C#CCNC1CCc2ccc(OC(=O)N(C)C)cc21 (stereo unspecified) )
5.68

###

- system-tested: Amine oxidase [flavin-containing] A (Rattus norvegicus, UniProt P21396)
- Sequence (P21396 whole entry): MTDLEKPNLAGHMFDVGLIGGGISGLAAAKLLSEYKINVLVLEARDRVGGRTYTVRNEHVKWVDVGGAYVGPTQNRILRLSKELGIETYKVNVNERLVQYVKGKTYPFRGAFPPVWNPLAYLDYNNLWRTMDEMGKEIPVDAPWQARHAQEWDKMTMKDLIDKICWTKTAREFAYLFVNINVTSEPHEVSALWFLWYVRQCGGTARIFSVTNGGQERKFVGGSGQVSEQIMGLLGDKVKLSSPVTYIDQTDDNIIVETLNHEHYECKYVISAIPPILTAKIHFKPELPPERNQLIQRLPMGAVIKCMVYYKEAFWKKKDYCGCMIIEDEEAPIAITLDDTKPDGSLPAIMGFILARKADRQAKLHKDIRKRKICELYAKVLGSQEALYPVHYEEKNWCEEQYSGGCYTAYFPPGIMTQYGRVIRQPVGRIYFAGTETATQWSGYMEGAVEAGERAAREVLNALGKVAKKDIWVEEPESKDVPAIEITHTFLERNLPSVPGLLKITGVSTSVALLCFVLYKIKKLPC
- protocol-summary: In vitro inhibitory concentration against Monoamine oxidase A of rat brain homogenates; value ranges from 6.3-7.7
- Assay type: tissue-based
attribute-measured: IC50 (µM)
API: value field is a number in µM; no unit string.

API: value(readout= IC50, system= Amine oxidase [flavin-containing] A (Rattus norvegicus, UniProt P21396), query= C#CCNC(C)Cc1cccc(OC(=O)N(C)C)c1 (stereo unspecified) )
6.9

###

- system-tested: Acetylcholinesterase (Homo sapiens, UniProt P22303)
- Sequence (P22303 whole entry): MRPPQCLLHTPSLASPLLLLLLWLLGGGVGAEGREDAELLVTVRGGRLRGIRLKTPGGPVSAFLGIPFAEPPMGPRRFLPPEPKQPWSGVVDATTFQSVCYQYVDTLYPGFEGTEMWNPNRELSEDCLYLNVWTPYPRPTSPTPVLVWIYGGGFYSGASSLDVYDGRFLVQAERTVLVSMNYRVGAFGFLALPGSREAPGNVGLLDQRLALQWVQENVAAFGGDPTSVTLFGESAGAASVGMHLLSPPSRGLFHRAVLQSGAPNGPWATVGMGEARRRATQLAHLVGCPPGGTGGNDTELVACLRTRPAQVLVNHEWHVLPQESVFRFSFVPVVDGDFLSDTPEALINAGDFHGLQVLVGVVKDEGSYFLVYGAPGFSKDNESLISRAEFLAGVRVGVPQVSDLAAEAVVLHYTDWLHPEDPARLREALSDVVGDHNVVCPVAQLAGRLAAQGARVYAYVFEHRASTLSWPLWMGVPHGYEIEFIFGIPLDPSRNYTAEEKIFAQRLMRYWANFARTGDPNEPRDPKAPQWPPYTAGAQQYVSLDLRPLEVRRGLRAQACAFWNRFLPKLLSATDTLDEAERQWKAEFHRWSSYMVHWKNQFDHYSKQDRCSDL
- protocol-summary: In vitro inhibitory concentration against purified Acetylcholinesterase of human erythrocytes; value ranges from 0.12-0.32
attribute-measured: pIC50
// pIC50 here means minus log10 of the molar concentration (mol/L)

Return reported pIC50; argument: CN(C)CCc1cccc(OC(=O)N(C)C)c1
6.80

###

- system-tested: Acetylcholinesterase (Homo sapiens)
- protocol-summary: In vitro inhibitory concentration against purified Acetylcholinesterase of human erythrocytes; value ranges from 13.6-128
attribute-measured: pIC50
// pIC50 here means minus log10 of the molar concentration (mol/L)

API: value(readout= pIC50, system= Acetylcholinesterase (Homo sapiens), query= C#CCN[C@H]1CCc2ccc(OC(=O)N(C)CC)cc21 )
4.46

###

- system-tested: Amine oxidase [flavin-containing] A (Rattus norvegicus, UniProt P21396)
- Sequence (P21396 whole entry): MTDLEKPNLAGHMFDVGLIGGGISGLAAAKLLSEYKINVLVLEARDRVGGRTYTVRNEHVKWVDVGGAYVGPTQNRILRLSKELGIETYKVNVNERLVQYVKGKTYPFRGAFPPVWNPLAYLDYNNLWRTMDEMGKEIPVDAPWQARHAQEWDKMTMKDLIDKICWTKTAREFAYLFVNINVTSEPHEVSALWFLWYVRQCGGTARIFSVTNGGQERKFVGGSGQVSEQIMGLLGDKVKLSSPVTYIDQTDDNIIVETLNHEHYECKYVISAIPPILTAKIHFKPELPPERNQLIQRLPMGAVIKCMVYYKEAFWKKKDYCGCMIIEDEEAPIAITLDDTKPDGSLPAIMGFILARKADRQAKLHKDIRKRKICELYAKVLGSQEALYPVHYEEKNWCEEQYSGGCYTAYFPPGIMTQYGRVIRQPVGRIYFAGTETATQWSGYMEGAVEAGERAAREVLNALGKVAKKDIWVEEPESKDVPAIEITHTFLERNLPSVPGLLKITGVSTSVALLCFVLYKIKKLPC
- protocol-summary: In vitro inhibitory concentration against Monoamine oxidase A of rat brain homogenates; value ranges from 190-310
- Format: tissue-based
attribute-measured: IC50 (µM)
API: value field is a number in µM; no unit string.

Return reported IC50; argument: C#CCNC1CCc2ccc(OC(=O)N(C)CC)cc21 (stereo unspecified)
250

Ref: ChEMBL document CHEMBL1135657
